Protocol notes: Aqueous solubility of carfilzomib
Type: physicochemical
Setup conditions: 30 °C, simulated gastric fluid, thermodynamic from solid; 0.1M HCl aqueous solution, ~pH 1; read-out: Approximate carfilzomib solubility at pH 1
Reported property: solubility

Prompt: Please look up its solubility: CC(C)C[C@H](NC(=O)[C@H](CCc1ccccc1)NC(=O)CN1CCOCC1)C(=O)N[C@@H](Cc1ccccc1)C(=O)N[C@@H](CC(C)C)C(=O)[C@@]1(C)CO1
Completion: ~1800 µg/mL

---

Protocol notes: Aqueous solubility of carfilzomib
Format: physicochemical
Setup conditions: aqueous medium; read-out: aqueous solubility
Reported property: solubility

Prompt: Sample CC(C)C[C@H](NC(=O)[C@H](CCc1ccccc1)NC(=O)CN1CCOCC1)C(=O)N[C@@H](Cc1ccccc1)C(=O)N[C@@H](CC(C)C)C(=O)[C@@]1(C)CO1 [carfilzomib] — what was its solubility?
Completion: < 1 µg/mL
